System: Dirofilaria immitis microfilariae
measurement-description: In vitro assay 3: Dirofilaria immitis microfilariae (DIROIM L1), motility
condition-label: 72 h, read-out: EC50 (reduction of motility), 72 h incubation
metric: EC50

Solved entries (count: 2):
>>> reported_result("Cc1ccc(C)c(-c2cccc3c(N(C)C)c(C(=O)N[C@H]4CCOc5ccccc54)cnc23)c1 [Example 471]")
"< 0.1 µg/mL"
>>> reported_result("Cc1cc(-c2cccc3c(N4CCOCC4)c(C(=O)N[C@H]4CCOc5ccccc54)cnc23)cc(C(C)(C)C)c1 [Example 587]")
"< 0.1 µg/mL"

For every item below, please supply its EC50.
1. O=C(N[C@H]1CCOc2ccccc21)c1cnc2c(-c3cc(Cl)cc(Cl)c3)cccc2c1N1CCC[C@@H]1CO [Example 287]
2. CCOC(=O)[C@@H]1CCCN1c1c(C(=O)N[C@H]2CCOc3ccccc32)cnc2c(-c3cc(Cl)cc(Cl)c3)cccc12 [Example 320]
3. CN(C)c1c(C(=O)N[C@H]2CCOc3ccccc32)cnc2c(-c3ccc4ncn(C)c4c3)cccc12 [Example 71]
4. O=C(N[C@H]1CCOc2ccccc21)c1cnc2c(-c3cccc(Cl)c3Cl)c(C(F)(F)F)ccc2c1N1CCOCC1 [Example 314]

1. < 10 µg/mL
2. < 1 µg/mL
3. < 1 µg/mL
4. < 0.1 µg/mL
